Attribution: patent US10294202B2

Tested on: pigweed
Assay: Test A pre-/postemergence herbicide test
Assay type: in vivo, Amaranthus retroflexus
Conditions: Postemergence, 500 g ai/ha
Kindly state Pigweed plant response rating (0 to 100 scale, 0 is no effect, 100 is complete control) for each of the entries shown.
Give bare numbers.

Solved cases below.
Cc1ccc(C2CNC(=O)C2C(=O)Nc2ccccc2Cl)cc1 (racemic) [Compound 152]: 20
O=C1NCC(c2ccc(Cl)cc2)C1C(=O)Nc1ccccc1F (stereo not drawn) [Compound 217]: 0
O=C1NCC(c2cccc(OC(F)(F)C(F)F)c2)C1C(=O)Nc1ccc(F)c(F)c1F (racemic) [Compound 124]: 70
CCc1cccc(C2CNC(=O)C2C(=O)Nc2ccc(F)c(F)c2F)c1 (racemic) [Compound 171]: 40
O=C1NCC(c2cccc(C(F)(F)F)c2)C1C(=O)Nc1ncc(Cl)s1 (racemic) [Compound 113]: 0

What does the data say about its Pigweed plant response rating (0 to 100 scale, 0 is no effect, 100 is complete control)? Entry: O=C1NCC(c2cccc(C(F)(F)F)c2)C1C(=O)Nc1ccccc1Cl (racemic) [Compound 189]
0
